Biological target: T1, ProQNTD (FinO domain of ProQ) (Escherichia coli, UniProt P45577 1-130)
T1 sequence: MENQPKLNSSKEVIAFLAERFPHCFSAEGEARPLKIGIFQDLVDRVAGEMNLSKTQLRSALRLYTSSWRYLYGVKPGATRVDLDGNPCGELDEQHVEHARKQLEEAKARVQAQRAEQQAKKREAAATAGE
Test: EMSA; 25 mM Tris-HCl pH 7.5, 150 mM NaCl, 5% glycerol, 1 mM MgCl2, 1 nM 32P-RNA, 30 min at room temperature; native 6% PAGE in 0.5x TBE at 4 C
Details: protein: recombinant; tags: pET-15b construct; label: 32P; terminator hairpin; A-G then C-A mismatch below; GAU4 tail
metric name: pKd
Reminder that pKd means the negative base-10 logarithm of the concentration expressed in mol/L.

Asked: Specify reported pKd for the binder shown: FinP (structured_RNA) RNA: GGAUACAUAGGAACCUCCUCACAAAGGAUUCUAUGGACAGUCGAUGCAGGGAGUUCACGUCUCCCUGCAUCGGCGAUUUU
Given back: 7.72
